# target.entity: T1, HTRA3, P83110
# T1 sequence (P83110 354-453, limits assumed, looked up): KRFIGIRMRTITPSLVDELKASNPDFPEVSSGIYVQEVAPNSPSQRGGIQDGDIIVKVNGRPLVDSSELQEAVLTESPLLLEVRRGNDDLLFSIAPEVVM
# assay.notes: holdup assay
# Design: key: below the threshold = too weak to quantify, mostly under pKd 3.1 to 4
# experimental.conditions: plain residues with an end cap or a label only (N-terminal biotin on a linker: ado-ado)
readout.type: pKd

binder: QRYPGNQTTC [CCL24, O00175]
readout.type: pKd
meas.value: 3.74
//
binder: PEKVSNTTVV [IGSF5, Q9NSI5]
readout.type: pKd
meas.value: below the threshold
//
binder: SGDGKTSVWI [GJC1, P36383]
readout.type: pKd
meas.value: 5.8
//
binder: PAALPESTHM [SLC9A3, P48764]
readout.type: pKd
meas.value: below the threshold
//
binder: GQNMTVSVVI [PRLHR, P49683]
readout.type: pKd
meas.value: 3.72
//
binder: FLVTEFNVML [DFNB31, Q9P202]
readout.type: pKd
meas.value: below the threshold
//
binder: NNMAFETTHF [SLC5A12, Q1EHB4]
readout.type: pKd
meas.value: below the threshold
//
binder: PGKKPEDSRV [SLCO2B1, O94956]
readout.type: pKd
meas.value: below the threshold

meta.source: paper PMC9482650
